molecular target: Homeobox protein Hox-A13 (Mus musculus); assay: disruptors of Hoxa13 oligonucleotide interaction – biochemical, fluorescence polarization, labeled oligonucleotide, primary screen (AID 1185); details: Hoxa13:DNA binding, 15 min, higher = more signal, called active from +8 up or from −8 down
measurementName: z-score
Answers are plain numbers.

Here are 5 molecules together with their reported answers.
[N-]=[N+]=NCc1ccccc1[C@H]1OC(c2ccc(OCCCO)cc2)=N[C@@]1(Cc1ccccc1)C(=O)NCC(O)CO (stereo partly specified) :: -3.47
COCCOC(=O)N1C(=O)[C@@]2(c3cc(C#CC4=CCCCC4)ccc31)[C@H](C(=O)N1CCN(c3ncccn3)CC1)[C@H]1C(=O)O[C@H](c3ccccc3)[C@H](c3ccccc3)N1[C@@H]2c1ccc(OCCO)cc1 :: 1.96
C[C@H]1C2[C@H](Cc3ccccc3)NC(=O)[C@]23C(=O)N[C@H](Cc2ccccc2)C(=O)N[C@H](Cc2ccccc2)C(=O)NC/C=C/CCC/C=C/C3[C@@H]2O[C@]12C (stereo partly specified) :: -5.67
O=C1O[C@H](c2ccccc2)[C@H](c2ccccc2)N2[C@H]1[C@@H](C(=O)NC[C@H](O)c1ccccc1)[C@]1(C(=O)Nc3ccc(C#CC4(O)CCCCCC4)cc31)[C@H]2c1ccccc1OCCO :: -2.77
CCCC[C@@H]1C[C@H]1[C@@H](NC(=O)c1ccccc1)c1ccccc1 :: -1.46

Now consider a different molecule.
Challenge: Quick one: z-score for CCN(CC)c1ccc(N2CC=CC34O[C@@H]5/C=C\CCC(C)OC(=O)C5[C@H]3C(=O)N(CCCCCCO)[C@@H]4C2=O)cc1 (stereo partly specified) ?
Response given: -5.99

###

Kindly supply the reported composite z-score values for the records listed here.
tested on: PRMT1 (protein arginine N-methyltransferase 1); test: small molecules binding arginine methyltransferase PRMT1 – biochemical, small-molecule microarray, 635 nm fluorescence, primary screen (AID 1088); settings: higher = more signal;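 also: binding of Prmt1 protein to compounds spotted on small-molecule microarray slides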
Answers are plain numbers.

Here are 3 compounds together with their reported answers.
COc1ccc([Si](C)(C)[C@@H]2[C@@H](CCO)O[C@]3(C(=O)N(Cc4cccc(N5CCCCC5=O)c4)c4ccccc43)[C@H]2C)cc1 :: 1.56
[N-]=[N+]=Nc1ccccc1C[C@]1(C(=O)N2CCCCC2)N=C(c2ccc(OCCCO)cc2)O[C@H]1c1ccccc1N=[N+]=[N-] :: 1.56
CN1C(=O)C2C=CC(C(O)c3ccc(Br)cc3)N(Nc3ccccc3)C2C1=O (centres undefined) :: -0.897

Now consider a different compound.
Challenge: Quick one: composite z-score for `CCCCCCC#C[Si](O[C@H](c1ccccc1)c1cn([C@H](C)c2ccccc2)nn1)(C(C)C)C(C)C` ?
Response given: 0.789

###

test: JC-1 mitochondrial potential readout, lung cancer cells – cell-based, A549, JC-1 fluorescence, basal, 24 h, 100 nL, profiling panel (AID 1138); conditions: higher = more signal;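 also: A549 lung adenocarcinoma cells under basal conditions with no added stimulus; test concentration not given here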
measurementName: z-score
Give bare numbers.

Here are 5 compounds together with their reported answers.
O=C1NC(=O)C2C1C=CC(C(O)c1cccs1)N2Nc1ccccn1 (stereo unspecified) :: 0.543
O=C1C2C=CC(C(O)C3CC=CCC3)N(n3cnnc3)C2C(=O)N1Cc1ccccc1 (stereo unspecified) :: -0.704
COC(=O)[C@@]1(Cc2ccccc2)[C@H]2c3cc(C(=O)N(C)C)n(Cc4cc(F)c(F)c(F)c4)c3C[C@H]2CN1C(=O)c1ccccc1 :: -0.322
CC(C)NC(=O)[C@@]1(c2ccc([N+](=O)[O-])cc2)CC(=O)N(C(C)C)[C@@H]1c1ccc(CO)cc1 :: 1.3
O=C1O[C@H](c2ccccc2)[C@H](c2ccccc2)N2[C@H]1[C@@H](C(=O)Nc1nc3ccccc3s1)[C@]1(C(=O)Nc3ccc(C#CC4=CCCCC4)cc31)[C@H]2c1ccc(OCCO)cc1 :: -2.24

Challenge: Quick one: z-score for `C=CCOC(=O)[C@@H]1[C@H]2C(=O)O[C@H](c3ccccc3)[C@H](c3ccccc3)N2[C@H](c2ccc(OCCOC(=O)[C@H]3C[C@H]4C(=O)N[C@@H](CC(C)C)C(=O)N4[C@H]3c3cccc(OCCO)c3)cc2)[C@@]12C(=O)Nc1ccc(I)cc12` ?
Response given: -0.736
